SYSTEM NAME: Tubulin (Bos taurus) (UniProt Q6B856+Q862L2+Q862F3)
EXPERIMENT DESCRIPTION: The compound was evaluated for its effect on tubulin polymerization in the presence of MAPS as equilibrium reading (20 min reading)
Format: protein assay
# Equilibrium OD340 annotations

| STRUCTURE NOTATION | Equilibrium OD340 |
| --- | --- |
| CCNCCCNCCCNCCCNCC1CC1 | 0.098 |
| CCNCCCNCCCNCCCNC[C@@H](C)CC | 0.247 |
| CCNCCCNCCCNCCCNCC1CCCCCC1 | 1.3 |
| NCCCNCCCCNCCCN | 0.624 |

* * *

# Equilibrium OD340 annotations
SYSTEM NAME: Tubulin (Bos taurus) (UniProt Q6B856+Q862L2+Q862F3)
EXPERIMENT DESCRIPTION: The compound was evaluated for its effect on tubulin polymerization in the absence of MAPS as equilibrium reading (10 min reading)
Format: protein assay

| STRUCTURE NOTATION | Equilibrium OD340 |
| --- | --- |
| CCNCCCNCCCNCCCNC[C@@H](C)CC | 1.79 |
| CCNCCCNCCCNCCCNCC1CC1 | 0.563 |
| NCCCNCCCCNCCCN | 1.31 |
| CCNCCCNCCCNCCCNCC1CCCCCC1 | 2.42 |
